Listed here: items and their measured viability at 20 µM.
# Assay overview: Cytotoxicity against mouse BV2 cells assessed as cell viability at 20 uM by MTT assay
# Format: cell-based, BV-2
# Stated conditions: read-out: Activity
// units = %; emit number, no label

Recorded viability at 20 µM, per entry:
{"Item smiles": "C[C@H](CC[C@H](O)[C@@H](C)[C@H]1[C@@H](O)C[C@H]2[C@@H]3CCC4=CC(=O)CC[C@]4(C)[C@H]3C[C@@H](O)[C@]12C)CO[C@@H]1O[C@H](CO)[C@@H](O)[C@H](O)[C@H]1O", "Readout unit": "%", "viability at 20 µM": 94.8}
{"Item smiles": "CNC(=N)NCCC[C@H](N)C(=O)O", "Readout unit": "%", "viability at 20 µM": 102}
{"Item smiles": "C[C@@H]1CC[C@@]2(OC1)O[C@H]1C[C@H]3[C@@H]4CC[C@H]5C[C@@H](O[C@@H]6O[C@H](CO)[C@H](O[C@@H]7O[C@H](CO)[C@@H](O)[C@H](O)[C@H]7O)[C@H](O)[C@H]6O[C@@H]6O[C@@H](C)[C@H](O)[C@@H](O)[C@H]6O)[C@H](O)C[C@]5(C)[C@H]4CC[C@]3(C)[C@H]1[C@@H]2C", "Readout unit": "%", "viability at 20 µM": 38.9}
{"Item smiles": "C[C@@H]1CC[C@@]2(OC1)O[C@H]1C[C@H]3[C@@H]4CC[C@H]5C[C@@H](O[C@@H]6O[C@H](CO)[C@H](O[C@@H]7O[C@H](CO)[C@@H](O)[C@H](O[C@@H]8OC[C@@H](O[C@@H]9O[C@@H](C)[C@H](O)[C@@H](O)[C@H]9O)[C@H](O)[C@H]8O)[C@H]7O[C@@H]7O[C@H](CO)[C@@H](O)[C@H](O)[C@H]7O)[C@H](O)[C@H]6O)[C@H](O)C[C@]5(C)[C@H]4CC[C@]3(C)[C@H]1[C@@H]2C", "Readout unit": "%", "viability at 20 µM": 86.4}
{"Item smiles": "C[C@@H]1CC[C@@]2(OC1)O[C@H]1C[C@H]3[C@@H]4CC[C@H]5C[C@@H](O[C@@H]6O[C@H](CO)[C@H](O[C@@H]7O[C@H](CO)[C@@H](O)[C@H](O[C@@H]8OC[C@@H](O)[C@H](O)[C@H]8O)[C@H]7O[C@@H]7O[C@H](CO)[C@@H](O)[C@H](O)[C@H]7O)[C@H](O)[C@H]6O)[C@H](O)C[C@]5(C)[C@H]4CC[C@]3(C)[C@H]1[C@@H]2C", "Readout unit": "%", "viability at 20 µM": 89.6}

# ---- query molecule ----
Q: Query (molecule): C[C@@H](CO)CC[C@H](O)[C@@H](C)[C@H]1[C@@H](O)C[C@H]2[C@@H]3CCC4=CC(=O)CC[C@]4(C)[C@H]3C[C@@H](O)[C@]12C ; field requested: viability at 20 µM
Ans: 93.4

----------
# Assay overview: Cytotoxicity against mouse BV2 cells assessed as cell viability by MTT assay
# Type: cell-based, BV-2
# Stated conditions: read-out: LD50 (the source's name)
Value type: CC50 (µM)
Kindly answer with a numeric value in µM, unit omitted.

Q: # lookup: CC50 of C[C@@H]1CC[C@@]2(OC1)O[C@H]1C[C@H]3[C@@H]4CC[C@H]5C[C@@H](O[C@@H]6O[C@H](CO)[C@H](O[C@@H]7O[C@H](CO)[C@@H](O)[C@H](O)[C@H]7O)[C@H](O)[C@H]6O[C@@H]6O[C@@H](C)[C@H](O)[C@@H](O)[C@H]6O)[C@H](O)C[C@]5(C)[C@H]4CC[C@]3(C)[C@H]1[C@@H]2C
Ans: 3.12
